# maps each entry to its pIC50
Target: APOL1 (Homo sapiens, UniProt O14791)
Sequence (O14791 whole entry S342G/I384M, form open): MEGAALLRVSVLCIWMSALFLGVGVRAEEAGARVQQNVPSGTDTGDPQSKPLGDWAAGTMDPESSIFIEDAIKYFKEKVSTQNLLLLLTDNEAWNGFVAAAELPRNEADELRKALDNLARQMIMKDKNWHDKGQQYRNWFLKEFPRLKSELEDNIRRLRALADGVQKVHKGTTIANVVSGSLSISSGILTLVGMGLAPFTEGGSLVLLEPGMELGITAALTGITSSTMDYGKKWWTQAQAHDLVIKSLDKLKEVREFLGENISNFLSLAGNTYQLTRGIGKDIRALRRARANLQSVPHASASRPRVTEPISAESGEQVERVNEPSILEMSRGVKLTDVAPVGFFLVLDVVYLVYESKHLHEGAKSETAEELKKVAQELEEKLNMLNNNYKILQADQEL
Test: Multi-Tox Assay (MultiTox-Fluor Multiplex Cytotoxicity Assay in tet-inducible APOL1 T-REx-HEK293 cells; Table 46 does not say which APOL1 variant G0/G1/G2)
Settings: IP50 = IC50 for cell proliferation, APOL1 variant not given
pIC50: −log10 of the molar value.

Example cases with answers are listed next.
molecule=C[C@H]1C[C@@]2(C[C@@H](c3cn(C[C@H](O)CO)nn3)N1)OC[C@@H](O)c1cc(Cl)sc12 assay_endpoint=pIC50 experimental_value="6.30 to 7.30"
molecule="C[C@H]1C[C@@]2(C[C@@H](c3cc(C4CC4)no3)N1)OCCc1cc(Cl)sc12 (racemic)" assay_endpoint=pIC50 experimental_value="> 7.30"
molecule=Cc1ccc(Cn2cc([C@@H]3C[C@]4(C[C@H](C)N3)OCC(F)(F)c3cc(Cl)sc34)nn2)nc1 assay_endpoint=pIC50 experimental_value="6.30 to 7.30"
molecule="C[C@H]1C[C@@]2(C[C@@H](c3cccc(S(N)(=O)=O)c3)N1)OCCc1cc(Cl)sc12 (racemic)" assay_endpoint=pIC50 experimental_value="6.30 to 7.30"
molecule=C[C@H]1C[C@@]2(C[C@@H](c3cn(Cc4ccc(OC5CCOCC5)cc4)nn3)N1)OCC(F)(F)c1cc(Cl)sc12 assay_endpoint=pIC50 experimental_value="6.30 to 7.30"
molecule="C[C@H]1C[C@@]2(C[C@@H](c3cnc(C(N)=O)cn3)N1)OCCc1cc(Cl)sc12 (racemic)" assay_endpoint=pIC50 experimental_value="> 7.30"

State the recorded pIC50 for this entry: C[C@H]1C[C@@]2(C[C@@H](c3cn4c(n3)COCC4)N1)OCCc1cc(Cl)sc12 (racemic)
> 7.30

Which pIC50 value is on record for Cc1ncc([C@@H]2C[C@]3(C[C@H](C)N2)OCCc2cc(Cl)sc23)o1 (racemic) ?
> 7.30

Entry under review: C[C@H]1C[C@@]2(C[C@@H](c3cccc4[nH]c(=O)oc34)N1)OCCc1cc(Cl)sc12 (racemic) . Reported pIC50?
6.30 to 7.30

Param item = COc1ccc(Cn2cc([C@@H]3C[C@]4(C[C@H](C)N3)OC[C@@H](O)c3cc(Cl)sc34)nn2)cc1F ; retrieve measured pIC50.
> 7.30

Which pIC50 value belongs to CNc1ncc([C@@H]2C[C@]3(C[C@H](C)N2)OCCc2cc(Cl)sc23)cn1 (racemic) ?
> 7.30

Sample Cc1cccnc1[C@@H]1C[C@]2(C[C@H](C)N1)OCCc1cc(Cl)sc12 (racemic) — what was its pIC50?
< 6.30

Item COCC1(Cn2cc([C@@H]3C[C@]4(C[C@H](C)N3)OC[C@@H](O)c3cc(Cl)sc34)nn2)CC1 has what recorded pIC50?
6.30 to 7.30

Give the measured pIC50 of C[C@H]1C[C@@]2(C[C@@H](c3cccc(S(C)(=O)=O)c3)N1)OCCc1cc(Cl)sc12 (racemic) .
6.30 to 7.30

* * *

Molecular target: APOL1 G1 (Homo sapiens, UniProt O14791, I384M/S342G)
Sequence (O14791 28-398 S342G/I384M): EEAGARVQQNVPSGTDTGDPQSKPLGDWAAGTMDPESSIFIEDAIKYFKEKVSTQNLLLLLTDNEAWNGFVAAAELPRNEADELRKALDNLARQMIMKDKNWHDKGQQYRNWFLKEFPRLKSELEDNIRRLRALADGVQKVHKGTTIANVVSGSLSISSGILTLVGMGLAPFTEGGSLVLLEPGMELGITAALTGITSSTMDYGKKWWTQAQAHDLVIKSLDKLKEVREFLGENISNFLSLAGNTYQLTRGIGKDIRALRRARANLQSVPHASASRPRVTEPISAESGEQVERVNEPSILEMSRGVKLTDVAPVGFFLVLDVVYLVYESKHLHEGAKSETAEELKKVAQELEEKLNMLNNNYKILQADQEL
Assay: MultiTox-Fluor Multiplex Cytotoxicity Assay in tet-inducible APOL1 G1 T-REx-HEK293 cells (clone G1 DC3.25)
Type: cell-based
Design: expressed in transfected cells; host or cells: T-REx HEK293, pAAVS1-Puro-APOL1 G1, clone G1 DC3.25
Conditions: Multi-Tox Assay; IP50 = IC50 for cell proliferation; APOL1 variant cell line not given
pIC50: −log10 of the molar value.
assay.endpoint: pIC50

Solved cases below.
compound="C[C@H]1C[C@@]2(C[C@@H](c3cn(CCC(C)(C)O)nn3)N1)OCC(F)(F)c1cc(Cl)sc12 [Compound 367]" target_system="APOL1 G1 (Homo sapiens, UniProt O14791, I384M/S342G)" assay_endpoint=pIC50 experimental_value="> 7.30"
compound="Cn1cc([C@@H]2C[C@]3(C[C@H](C4CC4)N2)OCCc2cc(C(F)(F)F)sc23)nn1 [Compound 383]" target_system="APOL1 G1 (Homo sapiens, UniProt O14791, I384M/S342G)" assay_endpoint=pIC50 experimental_value="> 7.30"
compound="CCOC(=O)C1CC1[C@@H]1C[C@]2(C[C@H](C)N1)OCCc1cc(Cl)sc12 (stereo in doubt) [Compound 375]" target_system="APOL1 G1 (Homo sapiens, UniProt O14791, I384M/S342G)" assay_endpoint=pIC50 experimental_value="> 7.30"
compound="COC(=O)C1([C@@H]2C[C@]3(C[C@H](C)N2)OCCc2cc(Cl)sc23)CC1 [Compound 372]" target_system="APOL1 G1 (Homo sapiens, UniProt O14791, I384M/S342G)" assay_endpoint=pIC50 experimental_value="< 6.30"
compound="C[C@H]1C[C@@]2(C[C@@H](C3(N)CC3)N1)OCCc1cc(Cl)sc12 [Compound 373]" target_system="APOL1 G1 (Homo sapiens, UniProt O14791, I384M/S342G)" assay_endpoint=pIC50 experimental_value="> 7.30"

Returns the measured pIC50 for the input compound. Input: C[C@H]1C[C@@]2(C[C@@H](c3cn(C[C@@H](O)CO)nn3)N1)OCC(F)(F)c1cc(Cl)sc12 [Compound 363]
> 7.30

Name the recorded pIC50 for C[C@H]1C[C@@]2(C[C@@H](c3cn(CCO)nn3)N1)OCC(F)(F)c1cc(Cl)sc12 [Compound 361] .
> 7.30

Look up pIC50: C[C@H]1C[C@@]2(C[C@@H](c3cn(C)nn3)N1)OC[C@@H](O)c1sc(C(F)(F)F)cc12 [Compound 390]
> 7.30

If you can, please state the reported pIC50 value of Cn1cc(C2CC3(CC(C(F)F)N2)OCCc2cc(C(F)(F)F)sc23)nn1 (stereo not drawn) [Compound 389] .
6.30 to 7.30

Dear colleague, I am looking for the recorded pIC50 of the following compound: CC(=O)NC1([C@@H]2C[C@]3(C[C@H](C)N2)OCCc2cc(Cl)sc23)CC1 [Compound 379]
< 6.30

# pIC50 lookup, item C[C@H]1C[C@@]2(C[C@@H](C3(N(C)C)CC3)N1)OCCc1cc(Cl)sc12 (racemic) [Compound 378]
> 7.30

For [2H]C1([2H])O[C@@]2(C[C@@H](c3cn(C)nn3)N[C@@H](C)C2)c2sc(Cl)cc2[C@]1([2H])O [Compound 385] , what is its reported pIC50?
> 7.30

Quick check: pIC50 of Cn1cc([C@@H]2C[C@]3(C[C@H](C4CC4)N2)OCCc2cc(Cl)sc23)nn1 [Compound 381] ?
> 7.30

Can you share its pIC50? I mean this compound: C[C@H]1C[C@@]2(C[C@@H](c3cn(Cc4cncs4)nn3)N1)OCC(F)(F)c1cc(Cl)sc12 [Compound 365]
> 7.30

Item C[C@H]1C[C@@]2(C[C@@H](c3cn(C)nn3)N1)OCC(C)(O)c1cc(C(F)(F)F)sc12 (stereo partly drawn) [Compound 384] has what recorded pIC50?
> 7.30
